For each entry below, report its GI50 value.
# Tested on: NCI-H23
# Experiment notes: NCI tumour cell line growth inhibition, 48 h
Active and inactive are the calls of the source. Cut-off read from the data, not from the text of the source: active = GI50 up to about 1.1 µM and inactive = higher.

Requested read-out GI50, target or system NCI-H23, entry CCOC(=O)c1csc(C(CSCc2ccc(OC)cc2)N2C(=O)c3ccccc3C2=O)n1 (stereo not given) > 100 µM (inactive)

Hi! What's the reported GI50 for O=[N+]([O-])c1ccc(C[P+](c2ccccc2)(c2ccccc2)c2ccccc2)cc1 on NCI-H23? 83.8 µM (inactive)

What value of GI50 on NCI-H23 does Cc1cn(C2CC(O)C(COC(N)=O)O2)c(=O)[nH]c1=O (stereo not given) have? > 100 µM (inactive)

Item CCOC(=O)C(CC/C=C\c1ccccc1)N1CCC[C@H]1C(=O)OC (stereo not given in full) with NCI-H23 - GI50? > 100 µM (inactive)

What value of GI50 on NCI-H23 does COc1ccc2[nH]c3c(c2c1)CCN(C)CC3 have? > 100 µM (inactive)

Kindly state the measured GI50 obtained for CCOC(=O)C(C#N)C1=CC(=O)C(=O)c2ccc(OC)cc21 (stereo not given) with NCI-H23. 15.5 µM (inactive)

What measured GI50 is associated with CCN(C(C)=O)c1cnc(/C=N/NC(N)=S)c2ccccc12 on NCI-H23? 3.36 µM (inactive)

Form entry - test system: NCI-H23; read-out: GI50; compound: O=C1CSC(/C=C/c2ccccc2)N1c1ccc(-c2ccc(-n3c(-c4ccccc4)nc4ccccc4c3=O)cc2)cc1 (stereo not given) 35.6 µM (inactive)

Missing value: GI50, NCI-H23, entry Cn1c(N/N=C/c2ccc(Cl)cc2)nc(-c2ccc(Cl)cc2)c(C#N)c1=O . Fill in? 18.7 µM (inactive)

What measured GI50 is associated with Nn1c(-c2ccccc2)n[nH]c1=O on NCI-H23? > 100 µM (inactive)

Field: GI50 (NCI-H23). Entry: O=C(Oc1ccc2c(-c3ccccc3)c(C(=O)Nc3ccc(Cl)cc3)c(=O)oc2c1)c1ccccc1 > 100 µM (inactive)

Field: GI50 (NCI-H23). Entry: O[C@H]1[C@H]2c3cc4c(cc3CN3CCC(=C[C@@H]1O)[C@H]23)OCO4 [LYCORINE] 2.42 µM (inactive)

Reported GI50 for NCI-H23, given O=[N+]([O-])/C=C/c1cn(CCCCCCCCCCCCn2cc(/C=C/[N+](=O)[O-])c3ccccc32)c2ccccc12 ? > 100 µM (inactive)

Write down the reported GI50 of Clc1ccc2nc(-c3ccccc3)nc(Cl)c2c1 , test system: NCI-H23. 69.2 µM (inactive)

Notebook: pull reported GI50 for NCI-H23, entry Nc1nc2c(ncn2C2C=CC(COS(N)(=O)=O)C2)c(=O)[nH]1 (stereo not given) > 100 µM (inactive)

GI50 of COc1ccc(-c2nc(SCC(=O)NNC(=S)Nc3ccccc3)[nH]c2-c2ccc(OC)cc2)cc1 on NCI-H23? 21.4 µM (inactive)

Return GI50 measured with NCI-H23 given this compound: O=C(Nn1c(-c2ccccc2)nc2ccccc2c1=O)c1ccc(Cl)cc1 95.1 µM (inactive)

Hi! What's the reported GI50 for CN1C2=C(CC3=C1CC(C)(C)CC3=O)C(=O)CC(C)(C)C2 on NCI-H23? > 100 µM (inactive)

Which GI50 is reported with NCI-H23 for this entry: C=C1C(=O)O[C@H]2C(=O)[C@H](C)CCC/C(C)=C/CC[C@@]3(C)O[C@@H]3C[C@@H]12 ? 14 µM (inactive)

# get_value(readout= GI50, system= NCI-H23) for Cc1nc(-n2nc(-c3ccccc3)cc2-c2ccccc2)sc1C(=O)CC(=O)C(=O)Nc1ccc(O)cc1 > 100 µM (inactive)

The reported numbers originate from ChEMBL document CHEMBL1201862.
